- ASSAY: Pharmacokinetic study in mouse
- APPLIED_CONDITIONS: male, CD-1, mouse, plasma, iv, 2 mg/kg, CL (plasma clearance), IV Bolus 2 mg/kg
PROPERTY_LABEL: clearance

Ask | Which clearance value belongs to CNC[C@@H](O)COc1ccc(Cl)c(-c2nc(-c3c(C)noc3C)c(C)c(N3CC4(CCN(C(=O)OC)CC4)C3)n2)c1 [EZM2302] ?
Reply | 43 mL/min/kg

###

- ASSAY: Pharmacokinetic study in rat
- APPLIED_CONDITIONS: male, Sprague-Dawley, rat, plasma, iv, 2 mg/kg
PROPERTY_LABEL: half-life (h)
Numbers only here, please. The scale is h.

Ask | Any idea what half-life was measured for CNC[C@@H](O)COc1ccc(Cl)c(-c2nc(-c3c(C)noc3C)c(C)c(N3CC4(CCN(C(=O)OC)CC4)C3)n2)c1 [EZM2302] ?
Reply | 6.21

###

- ASSAY: Pharmacokinetic study in mouse
- APPLIED_CONDITIONS: male, CD-1, mouse, plasma, iv, 2 mg/kg
PROPERTY_LABEL: AUC(0-inf) (ng·h/mL)
Write the value in ng·h/mL as a bare number.

Ask | Report AUC(0-inf) for CNC[C@@H](O)COc1ccc(Cl)c(-c2nc(-c3c(C)noc3C)c(C)c(N3CC4(CCN(C(=O)OC)CC4)C3)n2)c1 [EZM2302] please.
Reply | 772

Recorded values, source paper PMC5740082.
